# Test system: U2OS
# Assay details: Multiplex assay against U2OS
# Format: toxicity, cell-based
# Details: human, 24 h, 1 µM, compound concentration 1 uM, replicate 2
Labelling field: enter yes if recorded Population Tubulin-Different-Phenotype (%) is less than 20%. Enter no if it equals or exceeds that cut-off.

INSERT INTO measurements (molecule, group_label) VALUES
  ('Cl.Cn1c2c(c3ccc(Cl)c(Cl)c31)C(C#N)C1(CCNCC1)NC2=O (configuration not stated)', 'no'),
  ('CC[C@H](Nc1ncnc2[nH]cnc12)c1nc2cccc(F)c2c(=O)n1-c1ccccc1', 'yes'),
  ('Oc1cccc(-c2nc(N3CCOCC3)c3oc4ncccc4c3n2)c1', 'yes'),
  ('Cc1c(P(=S)(c2ccccc2)c2ccccc2)n2ccccc2[n+]1C/C=C/c1ccccc1.[Br-]', 'yes'),
  ('N#Cc1cccc(C(=O)Nc2cc(-c3ccccc3)nn2-c2ccccc2)c1', 'yes'),
  ('Cc1c(Nc2ccc(S(=O)(=O)N3CCN(C)CC3)cc2F)nc2ccc(Nc3cnn(C4CC4)c3)cn2c1=O', 'yes');

###

# System: HEK-293T
# Assay details: Multiplex assay against HEK293T
# Type: toxicity, cell-based
# Details: human, 48 h, 10 µM, compound concentration 10 uM, replicate 2
Readout: Population Fragmented Nuclei (%)

INSERT INTO measurements (structure_string, measured_result) VALUES
  ('N#Cc1cccc(C(=O)Nc2cc(-c3ccccc3)nn2-c2ccccc2)c1', 6),
  ('Cc1c(P(=S)(c2ccccc2)c2ccccc2)n2ccccc2[n+]1C/C=C/c1ccccc1.[Br-]', 12),
  ('Oc1cccc(-c2nc(N3CCOCC3)c3oc4ncccc4c3n2)c1', 10),
  ('C=CC(=O)Nc1cc(-n2c(=O)ccc3cnc4ccc(-c5ccc(NS(C)(=O)=O)cc5)cc4c32)ccc1C', 5),
  ('CCCCN(CC)c1nc(C)nc2c1c(C)cn2-c1c(C)cc(C)cc1C.Cl', 7);

###

# System: Fibroblast
# Assay details: Multiplex assay against human fibroblast
# Assay type: toxicity, cell-based
# Details: 12 h, 10 µM, compound concentration 10 uM, replicate 2
Readout: Population Apoptotic (%)

INSERT INTO results (compound, measured_result) VALUES
  ('C=CC(=O)Nc1cc(-n2c(=O)ccc3cnc4ccc(-c5ccc(NS(C)(=O)=O)cc5)cc4c32)ccc1C', 76),
  ('Cl.Cn1c2c(c3ccc(Cl)c(Cl)c31)C(C#N)C1(CCNCC1)NC2=O (centres undefined)', 40),
  ('Cc1ccc(NC(=O)Nc2cc(C(F)(F)F)ccc2F)cc1Nc1ccc2c(c1)NC(=O)/C2=C\c1ccc[nH]1', 20),
  ('CC(Cc1ccc(O)c(O)c1)C(C)Cc1ccc(O)c(O)c1 (centres undefined) [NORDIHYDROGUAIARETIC ACID]', 0);

###

# Test system: U2OS
# Assay details: Multiplex assay against U2OS
# Type: toxicity, cell-based
# Details: human, 24 h, 10 µM, compound concentration 10 uM, replicate 2
Below, each entry is listed alongside its reported Population Mitotic Cells (%).
Readout: Population Mitotic Cells (%)

INSERT INTO results (molecule, measured_result) VALUES
  ('c1ccc(-c2oc3ncnc(NC[C@@H]4CCCO4)c3c2-c2ccccc2)cc1', 0),
  ('CN1C(=O)[C@@H](NC(=O)c2cc3ccccc3[nH]2)N=C(c2ccccc2)c2ccccc21 [DEVAZEPIDE]', 7),
  ('Cc1ccc(S(=O)(=O)NC2c3ccccc3Oc3ccccc32)cc1', 0),
  ('CC(/C=C1\SC(=S)N(CCCC(=O)Nc2ccc(C(=O)O)c(O)c2)C1=O)=C\c1ccccc1', 55),
  ('CC[C@@]1(O)C(=O)OCc2c1cc1n(c2=O)Cc2cc3ccccc3nc2-1', 9),
  ('N#Cc1cccc(C(=O)Nc2cc(-c3ccccc3)nn2-c2ccccc2)c1', 57),
  ('Cc1c(P(=S)(c2ccccc2)c2ccccc2)n2ccccc2[n+]1C/C=C/c1ccccc1.[Br-]', 0),
  ('CC(C)c1cc(Nc2nc(N3CCC[C@H](N)C3)ncc2C(N)=O)cc(C(C)C)n1', 16);
